Where do the numbers come from? From patent US8906852B2.

Entries and their IC50
target.of.assay: VEGFR/KDR (Homo sapiens)
test.protocol: VEGFR/KDR kinase inhibition, DELFIA assay
applied.conditions: ATP 0.6 uM (2x Km), enzyme 5 nM

[
  {
    "compound": "O=C(Nc1ccc(Oc2ccnc3cc(-c4ccc(CN5CCCN(C(=O)CO)CC5)cn4)sc23)c(F)c1)NC1CC1",
    "target.of.assay": "VEGFR/KDR (Homo sapiens)",
    "IC50": "< 50 nM"
  },
  {
    "compound": "COCCN(CCc1ccc(-c2cc3nccc(Oc4ccc(NC(=O)NC5CC5)cc4F)c3s2)nc1)C(C)=O",
    "target.of.assay": "VEGFR/KDR (Homo sapiens)",
    "IC50": "< 50 nM"
  },
  {
    "compound": "CN(C)CCNC(=O)[C@@H]1CCCN1Cc1ccc(-c2cc3nccc(Oc4ccc(NC(=O)NC5CC5)cc4F)c3s2)nc1",
    "target.of.assay": "VEGFR/KDR (Homo sapiens)",
    "IC50": "< 50 nM"
  },
  {
    "compound": "O=C(CCO)NC1CCN(Cc2ccc(-c3cc4nccc(Oc5ccc(NC(=O)NC6CC6)cc5F)c4s3)nc2)CC1",
    "target.of.assay": "VEGFR/KDR (Homo sapiens)",
    "IC50": "< 50 nM"
  },
  {
    "compound": "CN(C)C(=O)CCN1CCN(Cc2ccc(-c3cc4nccc(Oc5ccc(NC(=O)NC6CC6)cc5F)c4s3)nc2)CC1",
    "target.of.assay": "VEGFR/KDR (Homo sapiens)",
    "IC50": "< 50 nM"
  },
  {
    "compound": "CC(=O)N(Cc1ccc(-c2cc3nccc(Oc4ccc(NC(=O)NC5CC5)cc4F)c3s2)nc1)C1CCNCC1",
    "target.of.assay": "VEGFR/KDR (Homo sapiens)",
    "IC50": "< 50 nM"
  }
]

Exam item: Give the reported IC50 for this compound. `O=C(Nc1ccc(Oc2ccnc3cc(C4=CCN(CCCN5CCOCC5)CC4)sc23)c(F)c1)NC1CC1`
Marked response: 50 to 100 nM

* * *

target.of.assay: VEGFR/KDR (Homo sapiens)
test.protocol: VEGFR/KDR kinase inhibition, DELFIA assay
applied.conditions: ATP 0.6 uM (2x Km), enzyme 5 nM
pIC50: −log10 of the molar value.
measured.metric: pIC50

[
  {
    "compound": "O=C(Nc1ccc(Oc2ccnc3cc(C(=O)N4CCC[C@@H](O)C4)sc23)c(F)c1)NC1CC1",
    "pIC50": "6.60 to 7.00"
  },
  {
    "compound": "CCOC(Nc1ccc(Oc2ccnc3cc(-c4ccc(CNCCOC)cn4)sc23)c(F)c1)C(F)(F)F (centres unmarked)",
    "pIC50": "≤ 6.60"
  },
  {
    "compound": "CC1=C(/C=C/C(C)=C/C=C/C(C)=C/C(=O)N2CCN(Cc3ccc(-c4cc5nccc(Oc6ccc(NC(=O)NC7CC7)cc6F)c5s4)nc3)CC2)C(C)(C)CCC1",
    "pIC50": "≤ 6.60"
  },
  {
    "compound": "CCCNC(=O)NC1CCN(Cc2ccc(-c3cc4nccc(Oc5ccc(NC(=O)NC6CC6)cc5F)c4s3)nc2)CC1",
    "pIC50": "> 7.30"
  },
  {
    "compound": "CN(C[C@@H](O)[C@H](O)[C@@H](O)[C@@H](O)CO)C(=O)c1ccc(-c2cc3nccc(Oc4ccc(NC(=O)NC5CC5)cc4F)c3s2)nc1 (stereo in doubt)",
    "pIC50": "> 7.30"
  }
]

Exam item: Provide only the value of recorded pIC50 for `O=C(O)CCCNCc1ccc(-c2cc3nccc(Oc4ccc(NC(=O)NC5CC5)c(F)c4F)c3s2)nc1`
Marked response: > 7.30

Exam item: Hello, please tell me recorded pIC50 for this one: `CN1CCC(C(=O)N2CCN(Cc3ccc(-c4cc5nccc(Oc6ccc(NC(=O)NC7CC7)cc6F)c5s4)nc3)CC2)CC1`
Marked response: > 7.30

Exam item: Consider the compound `COCCN(Cc1ccc(-c2cc3nccc(Oc4ccc(NC(=O)NC5CC5)cc4F)c3s2)cc1)C(=O)NC(C)C` and give its recorded pIC50.
Marked response: > 7.30

* * *

target.of.assay: VEGFR/KDR (Homo sapiens, UniProt P35968)
Sequence (P35968 806-1356): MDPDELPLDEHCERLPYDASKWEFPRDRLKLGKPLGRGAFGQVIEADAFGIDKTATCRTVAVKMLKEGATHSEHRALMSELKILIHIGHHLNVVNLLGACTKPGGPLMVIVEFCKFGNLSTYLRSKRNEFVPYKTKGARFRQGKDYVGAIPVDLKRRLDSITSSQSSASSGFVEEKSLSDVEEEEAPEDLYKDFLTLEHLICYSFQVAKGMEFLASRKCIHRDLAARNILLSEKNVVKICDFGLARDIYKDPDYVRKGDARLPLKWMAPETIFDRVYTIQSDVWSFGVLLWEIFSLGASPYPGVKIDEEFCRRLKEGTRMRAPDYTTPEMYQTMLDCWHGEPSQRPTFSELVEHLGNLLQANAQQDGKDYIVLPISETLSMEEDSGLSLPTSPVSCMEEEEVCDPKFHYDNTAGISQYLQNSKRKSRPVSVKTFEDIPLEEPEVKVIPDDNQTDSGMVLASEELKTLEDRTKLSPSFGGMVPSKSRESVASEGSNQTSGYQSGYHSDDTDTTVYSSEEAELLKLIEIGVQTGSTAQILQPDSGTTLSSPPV
test.protocol: VEGFR/KDR kinase inhibition, DELFIA assay
applied.conditions: ATP 0.6 uM (2x Km), enzyme 5 nM
pIC50: −log10 of the molar value.
measured.metric: pIC50

These solved cases illustrate the format of a correct answer.
[
  {
    "structure.notation": "CC(C)(C)OC(=O)N1CCN(C(=O)Cn2cc(-c3cc4nccc(Oc5ccc(NC(=O)NC6CC6)cc5F)c4s3)nn2)CC1",
    "target.of.assay": "VEGFR/KDR (Homo sapiens, UniProt P35968)",
    "pIC50": "> 7.30"
  },
  {
    "structure.notation": "O=C(Nc1ccc(Oc2ccnc3cc(C(=O)N4CCC(C(=O)O)CC4)sc23)c(F)c1)NC1CC1",
    "target.of.assay": "VEGFR/KDR (Homo sapiens, UniProt P35968)",
    "pIC50": "7.00 to 7.30"
  },
  {
    "structure.notation": "CC1(C)CN(Cc2ccc(-c3cc4nccc(Oc5ccc(NC(=O)NC6CC6)cc5F)c4s3)nc2)CCN1CCO",
    "target.of.assay": "VEGFR/KDR (Homo sapiens, UniProt P35968)",
    "pIC50": "> 7.30"
  }
]

Exam item: Report pIC50, nothing else, for this compound: `O=C(Nc1ccc(Oc2ccnc3cc(-c4cn(CC(=O)N5CCN(C(=O)CO)CC5)nn4)sc23)c(F)c1)NC1CC1`
Marked response: > 7.30

Exam item: Respond only with pIC50 recorded for `O=C(CO)NC1CN(Cc2ccc(-c3cc4nccc(Oc5ccc(NC(=O)NC6CC6)cc5F)c4s3)nc2)C1`
Marked response: > 7.30

Exam item: Output pIC50 of `CN1CCC(CN2CCN(C(=O)c3ccc(-c4cc5nccc(Oc6ccc(NC(=O)NC7CC7)cc6F)c5s4)nc3)CC2)CC1`
Marked response: > 7.30
